System: EGFR Del19/T790M/C797S (H1975-clone #28)
Experiment: EGFR degradation HTRF assay, H1975-clone #28 DTC cells
Assay type: cell-based
Settings: H1975 # 28 DTC cells; maximum percentage of inhibition (degradation)
Returns one of Satisfied or Not satisfied; Satisfied when Dmax (%) H1975 # 28 DTC is >= 80%.

As a guide, the following entries are already answered.
compound | cat
CCOc1cc(N2CCC(N3CCN(CCc4cccc5c4oc(=O)n5C4CCC(=O)NC4=O)CC3)CC2)c(CC)cc1Nc1ncc(Br)c(Nc2ccc3c(=O)n(CC)ncc3c2P(C)(C)=O)n1 (stereo not shown) [Example 644] | Satisfied
CCc1cc(Nc2ncc(Br)c(Nc3ccc4ncncc4c3P(C)(C)=O)n2)c(OC)cc1N1CCC(N2CCN(C(=O)[C@@H]3CCN(c4cc(F)c([C@H]5CCC(=O)NC5=O)c(F)c4)C3)CC2)CC1 [Example 668] | Satisfied
CCc1cc(Nc2ncc(Br)c(Nc3ccc4nc(C)ncc4c3P(C)(C)=O)n2)c(OC)cc1N1CCC(N2CCN(CCc3cc(F)c([C@H]4CCC(=O)NC4=O)c(F)c3)CC2)CC1 [Example 739] | Satisfied
CCc1ccc2c(P(C)(C)=O)c(Nc3nc(Nc4cc(CC)c(N5CCC(N6CCN(CCc7cc(F)c([C@H]8CCC(=O)NC8=O)c(F)c7)CC6)CC5)cc4OC)ncc3Cl)ccc2n1 [Example 744] | Satisfied
CCc1cc(Nc2ncc(Br)c(Nc3ccc4c(=O)n(C)ncc4c3P(C)(C)=O)n2)c(OC)cc1N1CCC(N2CCN(C(=O)[C@@H]3CCN(c4cc(F)c([C@H]5CCC(=O)NC5=O)c(F)c4)C3)CC2)CC1 [Example 528] | Satisfied
CCOc1cc(N2CCC(N3CCN(CCc4cc5oc(=O)n(C6CCC(=O)NC6=O)c5cc4C(F)(F)F)CC3)CC2)c(CC)cc1Nc1ncc(Br)c(Nc2ccc3nc(CC)ccc3c2P(C)(C)=O)n1 (stereo not shown) [Example 616] | Not satisfied

Lookup: Determine whether this compound has Dmax (%) H1975 # 28 DTC no lower than 80%: CCOc1cc(N2CCC(N3CCN(C[C@@H]4CCN(c5cccc6c5oc(=O)n6C5CCC(=O)NC5=O)C4)CC3)CC2)c(CC)cc1Nc1ncc(Br)c(Nc2ccc3c(=O)n(CC)ncc3c2P(C)(C)=O)n1 (stereo partly shown) [Example 623]
Found: Not satisfied

Lookup: Determine whether this compound has Dmax (%) H1975 # 28 DTC no lower than 80%: CCc1cc(Nc2ncc(Br)c(Nc3ccc4nc(C)ccc4c3P(C)(C)=O)n2)c(OC)cc1N1CCC(N2CCN(C(=O)[C@@H]3CN(c4cc(F)c([C@H]5CCC(=O)NC5=O)c(F)c4)CC3(C)C)CC2)CC1 [Example 662]
Found: Satisfied

###

The reader will find reported Dmax values listed item by item below.
Biological target: EGFR L858R/T790M/C797S (BaF3-LTC cells) (Homo sapiens, UniProt P00533, C797S/L858R/T790M)
Construct: expressed in transfected cells; host or cells: BaF3
Sequence (P00533 25-1210 T790M/C797S/L858R): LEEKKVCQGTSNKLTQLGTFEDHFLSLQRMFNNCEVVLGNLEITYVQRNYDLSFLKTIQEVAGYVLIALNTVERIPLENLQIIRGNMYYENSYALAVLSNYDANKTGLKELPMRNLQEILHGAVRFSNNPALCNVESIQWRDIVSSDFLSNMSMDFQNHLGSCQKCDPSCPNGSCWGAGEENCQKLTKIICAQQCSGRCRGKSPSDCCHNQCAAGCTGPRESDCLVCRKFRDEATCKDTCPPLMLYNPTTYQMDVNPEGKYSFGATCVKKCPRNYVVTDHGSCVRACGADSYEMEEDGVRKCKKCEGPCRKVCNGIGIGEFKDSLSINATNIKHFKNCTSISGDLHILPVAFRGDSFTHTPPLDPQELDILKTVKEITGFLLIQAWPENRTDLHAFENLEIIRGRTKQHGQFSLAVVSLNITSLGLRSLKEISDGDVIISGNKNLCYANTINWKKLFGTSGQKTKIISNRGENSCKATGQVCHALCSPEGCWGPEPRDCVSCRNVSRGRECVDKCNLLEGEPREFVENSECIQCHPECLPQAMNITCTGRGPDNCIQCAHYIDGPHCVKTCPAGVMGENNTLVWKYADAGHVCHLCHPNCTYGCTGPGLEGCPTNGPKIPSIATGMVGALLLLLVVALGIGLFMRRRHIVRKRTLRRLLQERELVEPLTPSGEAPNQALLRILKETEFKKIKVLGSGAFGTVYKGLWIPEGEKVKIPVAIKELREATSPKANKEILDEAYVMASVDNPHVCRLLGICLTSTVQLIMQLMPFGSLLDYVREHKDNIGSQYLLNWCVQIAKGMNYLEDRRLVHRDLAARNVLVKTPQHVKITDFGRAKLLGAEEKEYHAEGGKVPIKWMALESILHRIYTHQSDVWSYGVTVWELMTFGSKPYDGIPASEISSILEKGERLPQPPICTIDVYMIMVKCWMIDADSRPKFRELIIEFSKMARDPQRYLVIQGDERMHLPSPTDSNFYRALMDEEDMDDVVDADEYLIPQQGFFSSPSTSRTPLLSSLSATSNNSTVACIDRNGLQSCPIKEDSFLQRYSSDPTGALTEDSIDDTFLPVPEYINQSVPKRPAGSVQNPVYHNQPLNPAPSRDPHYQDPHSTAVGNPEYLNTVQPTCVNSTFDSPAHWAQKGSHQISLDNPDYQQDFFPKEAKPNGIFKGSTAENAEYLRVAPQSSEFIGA
Experiment: EGFR degradation HTRF assay, BaF3-LTC cells
Format: cell-based
Settings: BaF3-LTC cells; maximum percentage of inhibition (degradation); read-out: Dmax (%) BaF3-LTC
Description: BaF3 WT(wild type), BaF3-LTC(L858R/T790M/C797S) and BaF3-DTC(Del19/T790M/C797S) cells are treated with compounds diluted in 0.2% DMSO cell culture medium and incubate for 16h, 37° C., 5% CO2, H1975-#36, H1975-#28, H1975-#23 and HCC827 cells are treated with compounds diluted in 0.2% DMSO cell culture medium on day 2, incubate for 16h, 37° C., 5% CO2.the final concentriation of compounds in all assay is start with 10 uM, 5-fold dilution, total 8 doses were included. […]
Write down the numeric answer in % and omit the unit.

compound | measured on | units text | observed value
CCc1cc(Nc2ncc(Br)c(Nc3ccc4c(=O)n(CC)ncc4c3P(C)(C)=O)n2)c(OC)cc1N1CCC(N2CCN(C(=O)[C@@H]3CCN(c4cc(F)c([C@H]5CCC(=O)NC5=O)c(F)c4)C3)CC2)CC1 | EGFR L858R/T790M/C797S (BaF3-LTC cells) (Homo sapiens, UniProt P00533, C797S/L858R/T790M) | % | 93.3

Lookup: For the compound "CCc1ccc2c(P(C)(C)=O)c(Nc3nc(Nc4cc(CC)c(N5CCC(N6CCN(C(=O)[C@@H]7CCN(c8cc(F)c([C@H]9CCC(=O)NC9=O)c(F)c8)C7)CC6)CC5)cc4OC4CC4)ncc3Br)ccc2n1" , report Dmax.
Found: 90.2

Lookup: For the compound CCc1ccc2c(P(C)(C)=O)c(Nc3nc(Nc4cc(CC)c(N5CCC(N6CCN(CC7CN(c8cc(F)cc9c8oc(=O)n9C8CCC(=O)NC8=O)C7)CC6)CC5)cc4OC)ncc3Br)ccc2n1 (stereo not shown) , report Dmax.
Found: 89.9

Lookup: For the compound CCc1ccc2c(P(C)(C)=O)c(Nc3nc(Nc4cc(CC)c(N5CCC(N6CCN(CCCc7ccc8c(c7)oc(=O)n8C7CCC(=O)NC7=O)CC6)CC5)cc4OC)ncc3Br)ccc2n1 (stereo not shown) , report Dmax.
Found: 89.9

Lookup: For the compound "CCc1cc(Nc2ncc(Br)c(Nc3cc(F)c4nc(C)ccc4c3P(C)(C)=O)n2)c(OC)cc1N1CCC(N2CCN(CCc3cc(F)c([C@H]4CCC(=O)NC4=O)c(F)c3)CC2)CC1" , report Dmax.
Found: 93.1

Lookup: For the compound CCc1ccc2c(P(C)(C)=O)c(Nc3nc(Nc4cc(CC)c(N5CCC(N6CCN(C(=O)[C@@H]7CCN(c8cc(F)c(C9CCC(=O)NC9=O)c(F)c8)C7)CC6)CC5)cc4OC)ncc3Br)ccc2n1 (stereo partly shown) , report Dmax.
Found: 90.4

Lookup: For the compound CCOc1cc(N2CCC(N3CCN(CCc4cccc5c4oc(=O)n5C4CCC(=O)NC4=O)CC3)CC2)c(CC)cc1Nc1ncc(Br)c(Nc2ccc3c(=O)n(CC)ncc3c2P(C)(C)=O)n1 (stereo not shown) , report Dmax.
Found: 92.6

Lookup: For the compound "CCOc1cc(N2CCC(N3CCN(CCc4cc(F)c([C@H]5CCC(=O)NC5=O)c(F)c4)CC3)CC2)c(CC)cc1Nc1ncc(Br)c(Nc2ccc3nc(CC)c(F)cc3c2P(C)(C)=O)n1" , report Dmax.
Found: 87.5

Lookup: For the compound "CCc1cc(Nc2ncc(Br)c(Nc3ccc4cc(C)ncc4c3P(C)(C)=O)n2)c(OC)cc1N1CCC(N2CCN(C(=O)[C@@H]3CCN(c4cc(F)c([C@H]5CCC(=O)NC5=O)c(F)c4)C3)CC2)CC1" , report Dmax.
Found: 94.1

Lookup: For the compound CCc1cc(Nc2ncc(Br)c(Nc3ccc4nc(C)ccc4c3P(C)(C)=O)n2)c(OC)cc1N1CCC(N2CCN(C[C@H]3CCN(c4ccc5c(c4)oc(=O)n5C4CCC(=O)NC4=O)C3)CC2)CC1 (stereo partly shown) , report Dmax.
Found: 94.3
